target: DLL3 endogenously expressed on NCI-H82 cells (UniProt Q9NYJ7); assay: FACS on NCI-H82 cells; antibody 0.8 nM
Sequence (Q9NYJ7 27-618): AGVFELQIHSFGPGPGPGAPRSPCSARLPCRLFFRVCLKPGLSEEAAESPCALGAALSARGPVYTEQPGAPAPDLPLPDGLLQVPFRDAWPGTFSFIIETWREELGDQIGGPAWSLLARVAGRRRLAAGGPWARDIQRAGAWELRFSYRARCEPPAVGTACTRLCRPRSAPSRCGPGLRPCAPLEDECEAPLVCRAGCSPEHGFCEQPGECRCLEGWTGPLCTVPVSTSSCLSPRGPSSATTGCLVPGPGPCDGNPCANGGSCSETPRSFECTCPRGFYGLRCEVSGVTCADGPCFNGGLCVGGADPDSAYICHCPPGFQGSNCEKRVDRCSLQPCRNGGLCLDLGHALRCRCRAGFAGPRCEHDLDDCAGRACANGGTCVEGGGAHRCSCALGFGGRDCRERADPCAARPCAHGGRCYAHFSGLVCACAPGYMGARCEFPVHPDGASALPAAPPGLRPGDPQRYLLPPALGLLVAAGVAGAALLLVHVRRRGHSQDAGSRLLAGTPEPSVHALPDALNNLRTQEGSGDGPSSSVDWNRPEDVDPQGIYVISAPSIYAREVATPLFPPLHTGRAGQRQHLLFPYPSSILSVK
Recorded Endpoint: MFI
No unit in the answer, please; the number alone is enough.

The recorded MFI for entry mab014 scFv-hFc (Fc fusion, part only; not given: Linker and human IgG1 Fc, not shown: a dimerising Fc or GST) chain, part: DIQMTQSSSSFSVSLGDRVTITCKASEDIYNRLAWYQQKPGNTPRLLISGATSLETGVPSRFSGSGSGKDFTLSITSLQTEDVATYYCQQYWSLPWTFGGGTKLEIKEVQLHQSGPELVKPGTSVKISCKASGYTFTDYYMNWVKQSHGKSLEWIGDINPNHGDTGYNQKFTGKATLTVDKSSSTAYMELRSLTSEDSAVYYCARNFFYYGTTYGWYFDVWGTGTTVTVSS equals 667

Query Hab006VL4VH1-hFc (scFv, part only; not given: scFv linker and human IgG1 Fc, V domains shown, not shown: another chain or arm of the molecule; a dimerising Fc or GST; small tags and cut ends) VL: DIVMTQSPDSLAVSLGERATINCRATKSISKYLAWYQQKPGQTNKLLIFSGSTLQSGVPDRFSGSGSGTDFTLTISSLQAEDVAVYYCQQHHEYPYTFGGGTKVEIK VH: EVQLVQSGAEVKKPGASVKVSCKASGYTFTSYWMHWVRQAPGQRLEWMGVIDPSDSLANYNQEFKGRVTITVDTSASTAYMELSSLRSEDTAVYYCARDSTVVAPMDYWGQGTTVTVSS yields MFI of 434

In plain terms, Hab008L3H5-hFc (scFv, part only; not given: scFv linker and human IgG1 Fc, V domains shown, not shown: another chain or arm of the molecule; a dimerising Fc or GST; small tags and cut ends) VL: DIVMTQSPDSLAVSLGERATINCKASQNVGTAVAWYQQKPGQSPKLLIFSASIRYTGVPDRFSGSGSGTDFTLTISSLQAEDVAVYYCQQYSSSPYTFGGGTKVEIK VH: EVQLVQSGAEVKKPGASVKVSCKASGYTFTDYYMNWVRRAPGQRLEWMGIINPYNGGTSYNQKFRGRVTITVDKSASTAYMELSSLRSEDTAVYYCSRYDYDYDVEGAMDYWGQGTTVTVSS has a documented MFI of 152

Provenance of the data: patent EP4786492A1
